tested on: RNAi-treated eri-1 (mg366) nematodes; test: RNAi screening of olfactory receptor genes: chemotaxis assay of RNAi-treated nematodes to odorants; assay type: in vivo, Caenorhabditis elegans; details: srh-82 RNAi-treated nematodes; repellent or high concentration of attractant
Listing of recorded chemotaxis index by entry.
Parameter: chemotaxis index

{"Structure smiles": "CC(=O)C(C)=O", "Value reported": "−0.36"}
{"Structure smiles": "CCCCCCCC(C)=O", "Value reported": "−0.96"}
{"Structure smiles": "CC(C)CCO", "Value reported": "−0.53"}
{"Structure smiles": "CCCCCCCCO", "Value reported": "−0.65"}
{"Structure smiles": "O=Cc1ccccc1", "Value reported": "−0.88"}

----------
system: RNAi-treated eri-1 (mg366) nematodes; assay: RNAi screening of olfactory receptor genes: chemotaxis assay of RNAi-treated nematodes to odorants; type: in vivo, Caenorhabditis elegans; details: Control nematodes; repellent or high concentration of attractant
Listing of recorded chemotaxis index by entry.

{"Compound": "CCCCCCCC(C)=O [nonanone]", "System name": "RNAi-treated eri-1 (mg366) nematodes", "chemotaxis index": "−0.91 ± 0.009"}
{"Compound": "CC(C)CCO [High Iaa]", "System name": "RNAi-treated eri-1 (mg366) nematodes", "chemotaxis index": "−0.84 ± 0.011"}
{"Compound": "O=Cc1ccccc1 [High Bz]", "System name": "RNAi-treated eri-1 (mg366) nematodes", "chemotaxis index": "−0.91 ± 0.007"}
{"Compound": "CC(=O)C(C)=O [High Da]", "System name": "RNAi-treated eri-1 (mg366) nematodes", "chemotaxis index": "−0.62 ± 0.012"}
{"Compound": "CCCCCCCCO [octanol]", "System name": "RNAi-treated eri-1 (mg366) nematodes", "chemotaxis index": "−0.68 ± 0.018"}

----------
system: RNAi-treated eri-1 (mg366) nematodes; assay: RNAi screening of olfactory receptor genes: chemotaxis assay of RNAi-treated nematodes to odorants; type: in vivo, Caenorhabditis elegans; conditions: srh-11 RNAi-treated nematodes; repellent or high concentration of attractant
Listing of recorded chemotaxis index by entry.

{"Structure smiles": "CC(C)CCO", "chemotaxis index": "−0.79"}
{"Structure smiles": "CCCCCCCC(C)=O", "chemotaxis index": "−0.65"}
{"Structure smiles": "CC(=O)C(C)=O", "chemotaxis index": "−0.65"}
{"Structure smiles": "O=Cc1ccccc1", "chemotaxis index": "−0.78"}
{"Structure smiles": "CCCCCCCCO", "chemotaxis index": "−0.19"}

----------
tested on: RNAi-treated eri-1 (mg366) nematodes; assay: RNAi screening of olfactory receptor genes: chemotaxis assay of RNAi-treated nematodes to odorants; assay type: in vivo, Caenorhabditis elegans; settings: srh-68 RNAi-treated nematodes; low concentration of attractant
Parameter: chemotaxis index

{"Structure smiles": "Cc1nc(C)c(C)s1", "Parameter": "chemotaxis index", "Value reported": 0.57}
{"Structure smiles": "c1cnccn1", "Parameter": "chemotaxis index", "Value reported": 0.36}
{"Structure smiles": "CCC(=O)C(C)=O", "Parameter": "chemotaxis index", "Value reported": 0.21}
{"Structure smiles": "CCC(C)=O", "Parameter": "chemotaxis index", "Value reported": 0.67}

----------
test system: RNAi-treated eri-1 (mg366) nematodes; assay: RNAi screening of olfactory receptor genes: chemotaxis assay of RNAi-treated nematodes to odorants; assay type: in vivo, Caenorhabditis elegans; settings: srh-59 RNAi-treated nematodes; repellent or high concentration of attractant
Answer condition not met if chemotaxis index is under -0.6, and condition met if it is -0.6 or more.

{"Compound": "CCCCCCCCO [octanol]", "Qualitative label": "condition met"}
{"Compound": "CC(=O)C(C)=O [High Da]", "Qualitative label": "condition met"}
{"Compound": "CCCCCCCC(C)=O [nonanone]", "Qualitative label": "condition not met"}
{"Compound": "CC(C)CCO [High Iaa]", "Qualitative label": "condition not met"}
{"Compound": "O=Cc1ccccc1 [High Bz]", "Qualitative label": "condition not met"}
